test system: Human peripheral blood mononuclear cells (PBMC); test: Cytokine induction in human cells (PBMC); format: cell-based; settings: human PBMC, 21-24 hours culture, multiplex bead assay; lowest concentration giving cytokine level at least 2× negative control; read-out: MEC to Induce Cytokine IFN-gamma

SMILES: COC[C@@H](n1cnc2c(N)nc3ccccc3c21)C(C)(C)C
COMPARISON SYMBOL: ≤
minimal effective concentration, µM: 0.4

SMILES: CCOC[C@H](n1cnc2c(N)nc3ccccc3c21)C(C)(C)O
COMPARISON SYMBOL: >
minimal effective concentration, µM: 100

SMILES: CCOC[C@H](C(C)C)n1c(C)nc2c(N)nc3ccccc3c21
COMPARISON SYMBOL: =
minimal effective concentration, µM: 1.1

SMILES: CCOC[C@@H](C(C)C)n1c(C)nc2c(N)nc3ccccc3c21
COMPARISON SYMBOL: >
minimal effective concentration, µM: 30

SMILES: CCOC[C@@H](n1c(C)nc2c(N)nc3ccccc3c21)C(C)(C)O
COMPARISON SYMBOL: =
minimal effective concentration, µM: 0.37

SMILES: CCOC[C@@H](n1c(CC)nc2c(N)nc3ccccc3c21)C(C)(C)O
COMPARISON SYMBOL: =
minimal effective concentration, µM: 3.3

SMILES: CCOC[C@H](n1cnc2c(N)nc3ccccc3c21)C(C)(C)C
COMPARISON SYMBOL: =
minimal effective concentration, µM: 3

SMILES: CCOC[C@@H](n1cnc2c(N)nc3ccccc3c21)C(C)(C)O
COMPARISON SYMBOL: =
minimal effective concentration, µM: 0.12

SMILES: CCOC[C@@H](C(C)C)n1cnc2c(N)nc3ccccc3c21
COMPARISON SYMBOL: >
minimal effective concentration, µM: 30

SMILES: CCO[C@@H](C)[C@@H](n1cnc2c(N)nc3ccccc3c21)C(C)(C)O
COMPARISON SYMBOL: =
minimal effective concentration, µM: 10

SMILES: CCOC[C@@H](n1cnc2c(N)nc3ccccc3c21)C(O)(CC)CC
COMPARISON SYMBOL: =
minimal effective concentration, µM: 0.12

SMILES: CCOC[C@@H](n1cnc2c(N)nc3ccccc3c21)C(C)(C)C
COMPARISON SYMBOL: =
minimal effective concentration, µM: 0.012

SMILES: CCOC[C@H](C(C)C)n1cnc2c(N)nc3ccccc3c21
COMPARISON SYMBOL: ≤
minimal effective concentration, µM: 0.04
